Item-by-item account of combination Emax
Test system: KYSE-450 (Esophageal Squamous Cell Carcinoma)
test name: combination Emax (second highest fraction inhibited in the dose matrix, 72 h); higher = more inhibition; extreme values may be limits of the assay
measurement label: combination Emax

>>> value_measured("CCN(CCO)CCCOc1ccc2c(Nc3cc(CC(=O)Nc4cccc(F)c4)[nH]n3)ncnc2c1 [AZD2811] + C[C@@H]1COCCN1C2=NC(=NC(=C2)C3(CC3)[S@](=N)(=O)C)C4=C5C=CNC5=NC=C4 [AZD6738] (first compound max 1 µM, 7x7, partner max 10 µM)")
0.63
>>> value_measured("CN(CCO)CC[C@H](CSc1ccccc1)Nc1ccc(S(=O)(=O)NC(=O)c2ccc(N3CCC([C@@H](O)c4ccccc4-c4ccc(Cl)cc4)CC3)cc2)cc1S(=O)(=O)C(F)(F)F [AZD4320] + C[C@@H](Nc1cc(F)cc(F)c1)c1cc(C(=O)N(C)C)cc2c(=O)cc(N3CCOCC3)oc12 [AZD8186] (first compound max 1 µM, 7x7, partner max 3 µM)")
0.33
>>> value_measured("CN(CCO)CC[C@H](CSc1ccccc1)Nc1ccc(S(=O)(=O)NC(=O)c2ccc(N3CCC([C@@H](O)c4ccccc4-c4ccc(Cl)cc4)CC3)cc2)cc1S(=O)(=O)C(F)(F)F [AZD4320] + CS(=O)(=O)CCNCc1ccc(-c2ccc3ncnc(Nc4ccc(OCc5cccc(F)c5)c(Cl)c4)c3c2)o1 [Lapatinib] (first compound max 1 µM, 7x7, partner max 10 µM)")
0.41
>>> value_measured("CC1(C)CCC(CN2CCN(c3ccc(C(=O)NS(=O)(=O)c4ccc(NCC5CCOCC5)c([N+](=O)[O-])c4)c(Oc4cnc5[nH]ccc5c4)c3)CC2)=C(c2ccc(Cl)cc2)C1 [Venetoclax] + Cc1cc2ncnn2cc1Nc1ncc2c(n1)n(C1CCOCC1)c(=O)n2C [AZD7648] (first compound max 1 µM, 7x7, partner max 10 µM)")
0.14
>>> value_measured("CCN(CCO)CCCOc1ccc2c(Nc3cc(CC(=O)Nc4cccc(F)c4)[nH]n3)ncnc2c1 [AZD2811] + C=CCn1c(=O)c2cnc(Nc3ccc(N4CCN(C)CC4)cc3)nc2n1-c1cccc(C(C)(C)O)n1 [AZD1775] (first compound max 1 µM, partner max 1 µM)")
0.61
>>> value_measured("Cc1nc(-c2cn3c(n2)-c2ccc(-c4cnn(C(C)(C)C(N)=O)c4)cc2OCC3)n(C(C)C)n1 [Taselisib] + O=C(Nc1ccc2[nH]nc(-c3ccncc3)c2c1)[C@@H]1CCN(CC(=O)N2CCN(c3ccc(-c4ncccn4)cc3)CC2)C1 [SCH772984] (first compound max 10 µM, 7x7, partner max 5 µM)")
0.725

---

The compounds listed here are annotated with their combination Emax.
Tested on: MLMA (Other Blood Carcinomas)
test name: combination Emax (second highest fraction inhibited in the dose matrix, 72 h); higher = more inhibition; extreme values may be limits of the assay
measurement label: combination Emax

>>> value_measured("O=C(c1cc(Cc2n[nH]c(=O)c3ccccc23)ccc1F)N1CCN(C(=O)C2CC2)CC1 [Olaparib] + CN(CC[C@H](CSC1=CC=CC=C1)NC2=C(C=C(C=C2)S(=O)(=O)NC(=O)C3=CC=C(C=C3)N4CCC(CC4)[C@H](C5=CC=CC=C5C6=CC=C(C=C6)Cl)O)S(=O)(=O)C(F)(F)F)CCO [AZD4320] (first compound max 10 µM, 7x7, partner max 1 µM)")
0.519
>>> value_measured("CS(=O)(=O)CCNCc1ccc(-c2ccc3ncnc(Nc4ccc(OCc5cccc(F)c5)c(Cl)c4)c3c2)o1 [Lapatinib] + Cn1cnc2c(F)c(Nc3ccc(Br)cc3Cl)c(C(=O)NOCCO)cc21 [Selumetinib] (first compound max 10 µM, 7x7, partner max 10 µM)")
0.316
>>> value_measured("COc1nnc2ccc(N3CCC(c4ccc(OCCN5CCN(C)C(=O)[C@H]5C)cc4)CC3)nn12 [AZD5153] + Cn1cnc2c(F)c(Nc3ccc(Br)cc3Cl)c(C(=O)NOCCO)cc21 [Selumetinib] (first compound max 1 µM, 7x7, partner max 10 µM)")
0.906
>>> value_measured("COc1cccc(OCCCN)c1-c1cc(Nc2cnc(C#N)cn2)n[nH]1 [Prexasertib] + CCc1c2c(nc3ccc(O)cc13)-c1cc3c(c(=O)n1C2)COC(=O)[C@]3(O)CC [SN-38] (first compound max 1 µM, 7x7, partner max 0.3 µM)")
0.948
>>> value_measured("C=CCn1c(=O)c2cnc(Nc3ccc(N4CCN(C)CC4)cc3)nc2n1-c1cccc(C(C)(C)O)n1 [AZD1775] + Nc1ccn([C@@H]2O[C@H](CO)[C@@H](O)C2(F)F)c(=O)n1 [Gemcitabine] (first compound max 1 µM, partner max 0.3 µM)")
0.815
>>> value_measured("Cc1c2c(nn1C)CSCc1cc(n(C)n1)CSc1cc(c3ccccc3c1)OCCCc1c(C(=O)O)n(C)c3c-2c(Cl)ccc13 [AZD5991] + CS(=O)(=O)CCNCc1ccc(-c2ccc3ncnc(Nc4ccc(OCc5cccc(F)c5)c(Cl)c4)c3c2)o1 [Lapatinib] (first compound max 1 µM, 7x7, partner max 10 µM)")
0.232
>>> value_measured("Cc1nc(Nc2ncc(C(=O)Nc3c(C)cccc3Cl)s2)cc(N2CCN(CCO)CC2)n1 [Dasatinib] + CC(=O)Nc1cccc(-n2c(=O)n(C3CC3)c(=O)c3c(Nc4ccc(I)cc4F)n(C)c(=O)c(C)c32)c1 [Trametinib] (first compound max 2 µM, 7x7, partner max 1 µM)")
0.675

---

Test system: NCI-H358 (Lung Adenocarcinoma);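 note: after 72 h of two-drug dosing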
test name: Bliss excess, mean over the matrix (fraction); higher = more synergy
measurement label: Bliss excess

>>> value_measured("O=C(c1cc(Cc2n[nH]c(=O)c3ccccc23)ccc1F)N1CCN(C(=O)C2CC2)CC1 [Olaparib] + COc1nnc2ccc(N3CCC(c4ccc(OCCN5CCN(C)C(=O)[C@H]5C)cc4)CC3)nn12 [AZD5153] (first compound max 10 µM, 7x7, partner max 1 µM)")
-0.026
>>> value_measured("Cc1c2c(nn1C)CSCc1cc(n(C)n1)CSc1cc(c3ccccc3c1)OCCCc1c(C(=O)O)n(C)c3c-2c(Cl)ccc13 [AZD5991] + C=CCn1c(=O)c2cnc(Nc3ccc(N4CCN(C)CC4)cc3)nc2n1-c1cccc(C(C)(C)O)n1 [AZD1775] (first compound max 1 µM, partner max 1 µM)")
-0.0047
>>> value_measured("COc1nnc2ccc(N3CCC(c4ccc(OCCN5CCN(C)C(=O)[C@H]5C)cc4)CC3)nn12 [AZD5153] + Cc1c2c(nn1C)CSCc1cc(n(C)n1)CSc1cc(c3ccccc3c1)OCCCc1c(C(=O)O)n(C)c3c-2c(Cl)ccc13 [AZD5991] (first compound max 1 µM, 7x7, partner max 1 µM)")
-0.059
>>> value_measured("COc1cccc(OCCCN)c1-c1cc(Nc2cnc(C#N)cn2)n[nH]1 [Prexasertib] + C[C@@H]1COCCN1C2=NC(=NC(=C2)C3(CC3)[S@](=N)(=O)C)C4=C5C=CNC5=NC=C4 [AZD6738] (first compound max 1 µM, 7x7, partner max 10 µM)")
-0.021
>>> value_measured("CCc1c2c(nc3ccc(O)cc13)-c1cc3c(c(=O)n1C2)COC(=O)[C@]3(O)CC [SN-38] + CN(C)CCCOc1ccc(-c2ccc3ncc4c(c3c2)n(C2CCOCC2)c(=O)n4C)cn1 [AZD0156] (first compound max 0.3 µM, 7x7, partner max 1 µM)")
0.0282
>>> value_measured("Cn1cnc2c(F)c(Nc3ccc(Br)cc3Cl)c(C(=O)NOCCO)cc21 [Selumetinib] + C[C@@H]1COCCN1C2=NC(=NC(=C2)C3(CC3)[S@](=N)(=O)C)C4=C5C=CNC5=NC=C4 [AZD6738] (first compound max 10 µM, 7x7, partner max 10 µM)")
-0.0816
>>> value_measured("CN(CCO)CC[C@H](CSc1ccccc1)Nc1ccc(S(=O)(=O)NC(=O)c2ccc(N3CCC([C@@H](O)c4ccccc4-c4ccc(Cl)cc4)CC3)cc2)cc1S(=O)(=O)C(F)(F)F [AZD4320] + C[C@@H](Nc1cc(F)cc(F)c1)c1cc(C(=O)N(C)C)cc2c(=O)cc(N3CCOCC3)oc12 [AZD8186] (first compound max 1 µM, 7x7, partner max 3 µM)")
-0.0461
>>> value_measured("CC(=O)c1c(C)c2cnc(Nc3ccc(N4CCNCC4)cn3)nc2n(C2CCCC2)c1=O [Palbociclib] + Cn1cnc2c(F)c(Nc3ccc(Br)cc3Cl)c(C(=O)NOCCO)cc21 [Selumetinib] (first compound max 10 µM, 7x7, partner max 10 µM)")
-0.0489
>>> value_measured("CN(C)CCCOc1ccc(-c2ccc3ncc4c(c3c2)n(C2CCOCC2)c(=O)n4C)cn1 [AZD0156] + O=C(c1cc(Cc2n[nH]c(=O)c3ccccc23)ccc1F)N1CCN(C(=O)C2CC2)CC1 [Olaparib] (first compound max 3 µM, partner max 3 µM)")
-0.0175
>>> value_measured("NC1(C(=O)N[C@@H](CCO)c2ccc(Cl)cc2)CCN(c2ncnc3[nH]ccc23)CC1 [Capivasertib] + CC(C)n1c(=O)n(C)c2cnc3cc(F)c(-c4ccc(OCCCN5CCCCC5)nc4)cc3c21 [AZD1390] (first compound max 10 µM, 7x7, partner max 0.3 µM)")
-0.0088
>>> value_measured("COc1nnc2ccc(N3CCC(c4ccc(OCCN5CCN(C)C(=O)[C@H]5C)cc4)CC3)nn12 [AZD5153] + CC1(C)CCC(CN2CCN(c3ccc(C(=O)NS(=O)(=O)c4ccc(NCC5CCOCC5)c([N+](=O)[O-])c4)c(Oc4cnc5[nH]ccc5c4)c3)CC2)=C(c2ccc(Cl)cc2)C1 [Venetoclax] (first compound max 1 µM, 7x7, partner max 1 µM)")
-0.049
>>> value_measured("C[C@@H]1COCCN1c1cc(C2([S@](C)(=N)=O)CC2)nc(-c2ccnc3[nH]ccc23)n1 [AZD6738] + C1CC(C1)(C(=O)[O-])C(=O)[O-].N.N.[Pt+2] [Carboplatin] (first compound max 10 µM, 7x7, partner max 10 µM)")
-0.091
>>> value_measured("CC1(C)CCC(CN2CCN(c3ccc(C(=O)NS(=O)(=O)c4ccc(NCC5CCOCC5)c([N+](=O)[O-])c4)c(Oc4cnc5[nH]ccc5c4)c3)CC2)=C(c2ccc(Cl)cc2)C1 [Venetoclax] + CN(C)CCCOc1ccc(-c2ccc3ncc4c(c3c2)n(C2CCOCC2)c(=O)n4C)cn1 [AZD0156] (first compound max 1 µM, 7x7, partner max 1 µM)")
-0.0146
